Reference source for all entries: ChEMBL document CHEMBL1133926

biological target: Coagulation factor VII/tissue factor (Homo sapiens, UniProt P08709); test: Binding affinity for factor VIIa/TF
Sequence (P08709 61-212 limits assumed): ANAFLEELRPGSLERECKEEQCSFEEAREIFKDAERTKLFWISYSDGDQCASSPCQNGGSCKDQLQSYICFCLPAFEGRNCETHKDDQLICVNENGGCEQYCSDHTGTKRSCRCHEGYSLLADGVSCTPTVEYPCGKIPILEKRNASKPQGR
Sequence (P08709 213-466 limits assumed): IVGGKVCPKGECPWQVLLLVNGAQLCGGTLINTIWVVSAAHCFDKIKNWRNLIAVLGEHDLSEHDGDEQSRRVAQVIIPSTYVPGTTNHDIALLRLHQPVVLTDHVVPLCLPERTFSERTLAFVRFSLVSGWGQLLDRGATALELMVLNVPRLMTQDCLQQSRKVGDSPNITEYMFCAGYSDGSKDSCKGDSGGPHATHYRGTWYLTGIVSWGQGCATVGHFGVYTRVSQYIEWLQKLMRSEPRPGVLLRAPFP
Sequence (P13726 33-295 partner limits assumed): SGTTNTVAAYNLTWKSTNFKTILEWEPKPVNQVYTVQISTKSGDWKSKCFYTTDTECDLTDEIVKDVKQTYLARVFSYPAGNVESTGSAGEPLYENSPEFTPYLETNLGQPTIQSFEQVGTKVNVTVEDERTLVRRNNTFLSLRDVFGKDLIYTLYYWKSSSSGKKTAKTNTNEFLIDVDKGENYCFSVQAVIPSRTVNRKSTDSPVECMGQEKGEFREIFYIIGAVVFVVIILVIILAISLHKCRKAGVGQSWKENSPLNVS
MEASURED PARAMETER: pKi
Note: pKi values are expressed as the negative base-10 logarithm of concentration in M.

The following molecules have reported results that may help.
N=C(N)c1ccc2[nH]c(-c3cc(C(=O)O)cc(-c4cccc([N+](=O)[O-])c4)c3O)cc2c1	8.30
N=C(N)c1ccc2[nH]c(-c3cc(CCOP(=O)(O)O)cc(-c4cccc([N+](=O)[O-])c4)c3O)cc2c1	8.52
N=C(N)c1ccc2[nH]c(-c3cc(CC(=O)O)cc(-c4cccc(Cl)c4)c3O)cc2c1	7.48

Now consider the entry below.
Recorded pKi (molecule N=C(N)c1ccc2[nH]c(-c3cc(CC(=O)O)cc(-c4cccc(N)c4)c3O)cc2c1 ): 7.92

----------
biological target: Coagulation factor X (Homo sapiens); test: Binding affinity for Coagulation factor X with respect to compound 1
Sequence (P00742 41-179 limits assumed): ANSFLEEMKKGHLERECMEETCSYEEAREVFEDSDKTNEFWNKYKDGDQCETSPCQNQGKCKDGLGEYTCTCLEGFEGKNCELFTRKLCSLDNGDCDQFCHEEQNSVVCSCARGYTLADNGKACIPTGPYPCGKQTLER
Sequence (P00742 235-488 limits assumed): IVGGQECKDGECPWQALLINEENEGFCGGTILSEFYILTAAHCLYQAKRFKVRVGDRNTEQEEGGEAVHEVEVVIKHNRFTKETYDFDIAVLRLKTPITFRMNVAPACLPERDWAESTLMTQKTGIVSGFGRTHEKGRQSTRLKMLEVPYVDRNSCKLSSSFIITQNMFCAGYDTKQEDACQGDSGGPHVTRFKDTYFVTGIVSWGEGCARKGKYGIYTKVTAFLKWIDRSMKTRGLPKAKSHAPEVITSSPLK
Mark y only when Selectivity stays strictly below 5. Values equal to the cut-off are n.

Examples from the recorded data:
N=C(N)c1ccc2[nH]c(-c3cc(CCC(=O)O)cc(-c4cccc([N+](=O)[O-])c4)c3O)cc2c1	y
N=C(N)c1ccc2[nH]c(-c3cc(CC(=O)O)cc(-c4cccc(C(=O)O)c4)c3O)cc2c1	y
N=C(N)c1ccc2[nH]c(-c3cc(CC(=O)O)cc(-c4cccc(-c5nn[nH]n5)c4)c3O)cc2c1	y
N=C(N)c1ccc2[nH]c(-c3cc(C(=O)O)cc(-c4cccc([N+](=O)[O-])c4)c3O)cc2c1	n
N=C(N)c1cccc(-c2cc(CC(=O)O)cc(-c3cc4cc(C(=N)N)ccc4[nH]3)c2O)c1	y

Q. Hi there! Is Selectivity for N=C(N)c1ccc2[nH]c(-c3cc(CC(=O)O)cc(-c4ccccc4)c3O)cc2c1 below 5, do you know?
A. y

Q. Selectivity under 5? Item: N=C(N)c1ccc2[nH]c(-c3cc(CC(=O)O)cc(-c4cccc(N)c4)c3O)cc2c1
A. n

Q. Given the entry N=C(N)c1ccc2[nH]c(-c3cc(CC(=O)O)cc(-c4cccc(OP(=O)(O)O)c4)c3O)cc2c1 , would its reported Selectivity be below 5?
A. y

Q. State whether 5 exceeds Selectivity recorded for N=C(N)c1ccc2[nH]c(-c3cc(CC(=O)O)cc(-c4cccc([N+](=O)[O-])c4)c3O)cc2c1 .
A. n

----------
target: UniProt:P07477
MEASURED PARAMETER: Ki (µM)
Could you give me the number in µM? Just the number is fine.

Readout Ki for N=C(N)c1ccc2nc(-c3cc(Cl)cc(-c4cccc(N)c4)c3O)[nH]c2c1 , test system UniProt:P07477, was 4.7

----------
target: Serine protease 1 (Homo sapiens, UniProt P07477); experiment: Relative binding affinity towards Trypsin
Sequence (P07477 whole entry): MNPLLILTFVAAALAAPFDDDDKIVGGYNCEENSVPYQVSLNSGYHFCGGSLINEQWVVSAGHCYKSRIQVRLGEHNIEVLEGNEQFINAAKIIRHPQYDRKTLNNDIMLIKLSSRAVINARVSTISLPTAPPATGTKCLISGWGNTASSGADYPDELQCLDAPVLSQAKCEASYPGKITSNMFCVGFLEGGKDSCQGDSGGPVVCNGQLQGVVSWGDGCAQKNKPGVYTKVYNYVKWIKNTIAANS
MEASURED PARAMETER: Selectivity
Answer as a number with no unit attached.

Solved cases below.
N=C(N)c1ccc2[nH]c(-c3cc(CCOP(=O)(O)O)cc(-c4cccc([N+](=O)[O-])c4)c3O)cc2c1	63
N=C(N)c1ccc2[nH]c(-c3cc(CCC(=O)O)cc(-c4cccc([N+](=O)[O-])c4)c3O)cc2c1	37
N=C(N)c1cccc(-c2cc(CC(=O)O)cc(-c3cc4cc(C(=N)N)ccc4[nH]3)c2O)c1	2

Value (Selectivity, Serine protease 1 (Homo sapiens, UniProt P07477)) for record N=C(N)c1ccc2[nH]c(-c3cc(C(=O)O)cc(-c4cccc([N+](=O)[O-])c4)c3O)cc2c1 = 70

Form field Selectivity for item N=C(N)c1ccc2[nH]c(-c3cc(CC(N)C(=O)O)cc(-c4cccc([N+](=O)[O-])c4)c3O)cc2c1 (stereo not drawn) on Serine protease 1 (Homo sapiens, UniProt P07477): 5

Fill in: Serine protease 1 (Homo sapiens, UniProt P07477) Selectivity for N=C(N)c1ccc2[nH]c(-c3cc(CC(=O)O)cc(-c4cccc([N+](=O)[O-])c4)c3O)cc2c1 = 160

Log: Serine protease 1 (Homo sapiens, UniProt P07477), compound N=C(N)c1ccc2[nH]c(-c3cc(CC(=O)O)cc(-c4cccc(C(=O)O)c4)c3O)cc2c1 , Selectivity = 1

The compound N=C(N)c1ccc2[nH]c(-c3cc(CC(=O)O)cc(-c4cccc(Cl)c4)c3O)cc2c1 , when measured on Serine protease 1 (Homo sapiens, UniProt P07477), yielded Selectivity of 3
